The entries below come with measured activity, negative = inhibition values attached.
# PROTOCOL DESCRIPTION: qHTS profiling for inhibitors of Plasmodium falciparum proliferation (AID 504749);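 note: 0% = DMSO vehicle and full inhibition = artemisinin control; nearly all actives have a fitted effect of over 60% in size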
# CONDITION PARAMETERS: P. falciparum in erythrocytes, SYBR Green DNA, 72 h; at 28.7 µM (top of the series); parasite line B
Inconclusive results are not listed.
OBSERVATION TYPE: activity, negative = inhibition (%)

COMPOUND	QUANTITY UNIT	TEST VALUE
Cc1c(C(=O)O)c(O)cc2c1C(=O)c1c(O)c([C@H]3O[C@H](CO)[C@@H](O)[C@H](O)[C@H]3O)c(O)c(O)c1C2=O	%	13.4
CN1[C@@H]2CC(OC(=O)[C@@H](CO)c3ccccc3)C[C@@H]1[C@H]1O[C@H]12 (some centres undefined)	%	4.71
CC(=O)N1CCN(c2ccc(OC[C@@H]3CO[C@@](Cn4ccnc4)(c4ccc(Cl)cc4Cl)O3)cc2)CC1	%	-14.2
C[C@]12CC[C@H]3c4ccc(O)cc4CC[C@@H]3[C@H]1CC[C@@H]2OC(=O)CCC1CCCC1	%	2.07
C[C@]12CC[C@H]3c4ccc(O)cc4CC[C@@H]3[C@H]1CC[C@@H]2OP(=O)(O)O	%	13.6
CCc1ccc2c(c1)N(C[C@H](C)CN(C)C)c1ccccc1S2	%	-17.5
CC1(C)S[C@@H]2[C@H](NC(=O)Cc3ccccc3)C(=O)N2[C@@H]1C(=O)O	%	9.91
CN(C)[C@H]1C(=O)C(C(=O)NCN2CCCC2)=C(O)[C@]2(O)C(=O)C3=C(O)c4c(O)cccc4[C@](C)(O)[C@H]3C[C@H]12	%	1.72
C[C@H](CCC(=O)O)[C@H]1CC[C@@H]2[C@H]3[C@@H](C[C@@H](O)[C@]21C)[C@]1(C)CC[C@H](O)C[C@@H]1C[C@@H]3O	%	-10.8

----------
# STUDY TARGET: 3',5'-cyclic-AMP phosphodiesterase 4B (Homo sapiens)
# PROTOCOL DESCRIPTION: qHTS Assay for Inhibitors of PDE-IV (AID 607); note: % of control where 0% means no effect
# CONDITION PARAMETERS: HEK293 ACTOne CNG channel cells, membrane potential fluorescence; series mostly up to 22.9 µM
Records with an inconclusive call do not appear. Activity calls are given as the source filed them. Calls come from the whole dose curve; as a rule, active = well fitted activation curve with a large enough effect in the main read-out, with a control signal flat (not every such curve was filed as active); inconclusive = small, poorly fitted or top-dose-only effect, or effect the other way, or a change in a side signal; inactive = flat fitted curve, though single readings scatter. Residues, ends and D or L forms follow the SMILES beside them.

COMPOUND	outcome
O[C@@H](COc1ccc(Cl)cc1Cl)CN1CCCC1	inactive
O=C(O)c1ccc(N[C@H](c2ccccc2)c2ccc3cccnc3c2O)cc1	inactive
NC1(C(=O)OCc2ccccc2)CCCC1	inactive
C(=C/c1ccccc1)/CN1CCN(C(c2ccccc2)c2ccccc2)CC1	inactive
C[C@@H](NC(=O)C1(N)CCCC1)C(=O)O (HELM PEPTIDE1{[NC1(C(=O)[*:2])CCCC1].[dA]}$$$$V2.0)	inactive
OC[C@@H]1CCC[C@H](n2cnc3c(=S)nc[nH]c32)O1	inactive
NC(=O)N[C@H](CC(=O)O)C(=O)O	inactive
C(=N/Nc1nnc2c(n1)[nH]c1ccccc12)/c1cccnc1	inactive
O=C1[C@@H]2[C@@H]3C=C[C@H]([C@@H]2C(=O)N1CN1CCSCC1)[C@@H]1[C@@H]2C(=O)N(CN4CCSCC4)C(=O)[C@@H]2[C@H]31	inactive
Cc1ccc(C2=C(Cl)C(=O)C(c3ccc(C)cc3)=C(Cl)C2=O)cc1	inactive

The reported numbers originate from PubChem BioAssay (NCATS).
